Test system: Calu-3
assay_protocol: drug sensitivity score (DSS) for viability; higher = more toxic; extreme values may be limits of the assay
test_parameters: 72 h
Counter-ions that a name gives are not always drawn.

molecule: Nc1ncnc2c1ncn2C1CCCO1 (centres undefined)
drug sensitivity score: 0
//
molecule: CC[C@H]1OC(=O)C[C@@H](O)[C@H](C)[C@@H](O[C@@H]2O[C@H](C)[C@@H](O[C@H]3C[C@@](C)(O)[C@@H](O)[C@H](C)O3)[C@H](N(C)C)[C@H]2O)[C@@H](CC=O)C[C@@H](C)C(=O)/C=C/C(C)=C/[C@@H]1CO[C@@H]1O[C@H](C)[C@@H](O)[C@@H](OC)[C@H]1OC [TYLOSIN TARTRATE]
drug sensitivity score: 2.1
//
molecule: CN1C(=O)COc2c(C(=O)NC3CN4CCC3CC4)cc(Cl)cc21 (centres undefined) [azasetron]
drug sensitivity score: 0
//
molecule: COc1ccc(C(=O)NCc2cccnc2)cc1C(=O)NCc1cccnc1 [picotamide]
drug sensitivity score: 0
//
molecule: O=C(O)Cc1ccccc1Nc1c(Cl)cccc1Cl [diclofenac]
drug sensitivity score: 0
//
molecule: Cc1nc2cnc3ccc(C#Cc4cccnc4)cc3c2n1-c1ccc(C(C)(C)C#N)cc1 [BAG-956]
drug sensitivity score: 16.3
//
molecule: Cc1cc(C(=O)Nc2nc3cccc(Cl)c3n2[C@@H]2CCCCN(C(=O)/C=C/CN(C)C)C2)ccn1 [EGF816]
drug sensitivity score: 10.8
//
molecule: CCN1CCN(C(=O)Cc2ccc(Nc3ncc(F)c(Nc4ccc(C(=O)Nc5ccccc5Cl)cc4)n3)cc2)CC1 [aurora-a-inhibitor-i]
drug sensitivity score: 0.7
//
molecule: COCc1c(-c2ccc(NC(=O)Nc3cc(C(F)(F)F)ccc3F)c(F)c2)c2c(N)ncnn2c1CN1CCOCC1 [ACTB-1003]
drug sensitivity score: 5.2
//
molecule: OCCN1CCN(CCCN2c3ccccc3C=Cc3ccccc32)CC1 [opipramol]
drug sensitivity score: 0
//
molecule: CCCCCCCCCCCCCCCC[N+](C)(C)CCN(Cc1ccc(OC)cc1)c1ncccn1 [thonzonium]
drug sensitivity score: 7.9
//
molecule: C=CCc1ccc(O)c(-c2ccc(O)c(CC=C)c2)c1 [honokiol]
drug sensitivity score: 0
//
molecule: CCCN(CCC)C(=O)C1=Cc2ccc(-c3ccc(C(=O)N4CCCC4)cc3)cc2N=C(N)C1 [motolimod]
drug sensitivity score: 0
//
molecule: CNCc1cc(-c2ccccc2F)n(S(=O)(=O)c2cccnc2)c1 [vonoprazan]
drug sensitivity score: 0
